system: MDCK cells; assay: in vitro; type: cell-based, canine; conditions: dog, 72 h, 100 µmol·L−1
Overview of recorded MDCK cells survival rate for various molecules
All answers are understood in %, so give the number only.

Examples from the recorded data:
Smiles Representation: COc1ccccc1OCCNC(=O)c1ccc(Nc2ccnc3cc(C(F)(F)F)ccc23)cc1
Meas Value: 115.75
--
Smiles Representation: O=C(NCCO)c1ccc(Nc2ccnc3cc(C(F)(F)F)ccc23)cc1
Meas Value: 124.89
--
Smiles Representation: O=C(NCCCN1CCOCC1)c1ccc(Nc2ccnc3cc(C(F)(F)F)ccc23)cc1
Meas Value: 78.41

# input Value lookup for MDCK cells survival rate; key = `O=C(c1ccc(Nc2ccnc3cc(C(F)(F)F)ccc23)cc1)N1CCN(c2cccc(C(F)(F)F)c2)CC1`
# output 103.91

# input Value lookup for MDCK cells survival rate; key = `COc1ccccc1OCCNC(=O)c1ccc(Nc2ccnc3ccccc23)cc1`
# output 111.55

# input Value lookup for MDCK cells survival rate; key = `O=C(c1ccc(Nc2ccnc3cc(C(F)(F)F)ccc23)cc1)N1CCN(c2ccc(OC(F)(F)F)cc2)CC1`
# output 76.18

---

Overview of recorded MDCK cells survival rate for various compounds
test system: MDCK cells; assay: in vitro; type: cell-based, canine; conditions: dog, 72 h, 50 µmol·L−1
All answers are understood in %, so give the number only.

Compound: O=C(NCCO)c1ccc(Nc2ccnc3cc(C(F)(F)F)ccc23)cc1
Property Label: MDCK cells survival rate
Output Unit: %
Meas Value: 126.43
--
Compound: COc1ccccc1OCCNC(=O)c1ccc(Nc2ccnc3cc([N+](=O)[O-])ccc23)cc1
Property Label: MDCK cells survival rate
Output Unit: %
Meas Value: 100.33
--
Compound: CC(C)NC(=O)c1ccc(Nc2ccnc3cc(C(F)(F)F)ccc23)cc1
Property Label: MDCK cells survival rate
Output Unit: %
Meas Value: 140.08
--
Compound: O=C(NCc1ccccc1)c1ccc(Nc2ccnc3cc(C(F)(F)F)ccc23)cc1
Property Label: MDCK cells survival rate
Output Unit: %
Meas Value: 127.54
--
Compound: CCCNC(=O)c1ccc(Nc2ccnc3cc(C(F)(F)F)ccc23)cc1
Property Label: MDCK cells survival rate
Output Unit: %
Meas Value: 132.67
--
Compound: COc1ccccc1OCCNC(=O)c1ccc(Nc2ccnc3cc(OC(F)(F)F)ccc23)cc1
Property Label: MDCK cells survival rate
Output Unit: %
Meas Value: 104.22

# input Value lookup for MDCK cells survival rate; key = `COc1ccccc1OCCNC(=O)c1ccc(Nc2ccnc3ccc(Cl)cc23)cc1`
# output 86.83

# input Value lookup for MDCK cells survival rate; key = `COc1ccccc1OCCNC(=O)c1ccc(Nc2ccnc3ccc(C(F)(F)F)cc23)cc1`
# output 122.08

---

system: MDCK cells; assay: in vitro; format: cell-based, canine; conditions: dog, 72 h, 12.5 µmol·L−1
Property Label: MDCK cells survival rate (%)
All answers are understood in %, so give the number only.

Examples from the recorded data:
Smiles Representation: Cc1ccccc1N1CCN(C(=O)c2ccc(Nc3ccnc4cc(C(F)(F)F)ccc34)cc2)CC1
Assay Target: MDCK cells
MDCK cells survival rate / %: 89.39
--
Smiles Representation: CCN(CC)CCCNC(=O)c1ccc(Nc2ccnc3cc(C(F)(F)F)ccc23)cc1
Assay Target: MDCK cells
MDCK cells survival rate / %: 95.22
--
Smiles Representation: COc1ccccc1OCCNC(=O)c1ccc(Nc2ccnc3ccccc23)cc1
Assay Target: MDCK cells
MDCK cells survival rate / %: 90.89

# input Value lookup for MDCK cells survival rate; key = `CCNC(=O)c1ccc(Nc2ccnc3cc(C(F)(F)F)ccc23)cc1`
# output 123.45

# input Value lookup for MDCK cells survival rate; key = `CC(C)NC(=O)c1ccc(Nc2ccnc3cc(C(F)(F)F)ccc23)cc1`
# output 153.38

# input Value lookup for MDCK cells survival rate; key = `O=C(c1ccc(Nc2ccnc3cc(C(F)(F)F)ccc23)cc1)N1CCOCC1`
# output 92.77

# input Value lookup for MDCK cells survival rate; key = `O=C(NCCCO)c1ccc(Nc2ccnc3cc(C(F)(F)F)ccc23)cc1`
# output 113.26

# input Value lookup for MDCK cells survival rate; key = `Cc1ccc(N2CCN(C(=O)c3ccc(Nc4ccnc5cc(C(F)(F)F)ccc45)cc3)CC2)cc1`
# output 82.40

# input Value lookup for MDCK cells survival rate; key = `COc1ccccc1OCCNC(=O)c1ccc(Nc2ccnc3cc(OC(F)(F)F)ccc23)cc1`
# output 95.78

# input Value lookup for MDCK cells survival rate; key = `COc1ccccc1OCCNC(=O)c1ccc(Nc2ccnc3cc(C(F)(F)F)ccc23)cc1`
# output 140.55
